For each entry below, report its growth value.
system: NCI/ADR-RES ovarian; experiment: NCI-60 one-dose screen, 48 h (100 = growth as untreated, 0 = no growth, -100 = all killed); conditions: 10 µM unless noted
About 83,000 compounds went through this panel and 20% of them were active in at least one assay; those are over-represented in the sample as a whole.
Numbers only, in %.

Illustrative cases are given below, each with its answer.
- smiles.structure: "Cc1cc(NC(=O)c2cccc(C(F)(F)F)c2)ccc1-n1ccc2c(NC(=O)c3ccccc3)nccc21"
  growth [%]: 102
- smiles.structure: "CS(=O)(=O)Nc1cccc(-c2ccc3ncnc(Nc4cncc(Cl)c4)c3c2)c1"
  growth [%]: 79.7
- smiles.structure: "Cc1cc(NCCN(C(C)C)C(C)C)nc(/N=C(\\N)Nc2ccc(Cl)c(C(F)(F)F)c2)n1"
  growth [%]: -41.1

For each entry beneath this line, provide reported growth.
1. CN(C)c1ccc2cc(-c3nc4ccccc4s3)c(N)nc2c1
2. Cc1cccc(NCS(=O)(=O)O)c1
3. O=C(O)c1cn(C2CC2)c2cc(N3CCN(C(=O)CSc4nc(NS(=O)(=O)c5ccccc5)cc(=O)[nH]4)CC3)c(F)cc2c1=O
4. O=C(Nc1cccc(-n2ccc3c(NC(=O)c4ccccc4)nccc32)c1)c1cc(N2CCOCC2)cc(C(F)(F)F)c1
5. CCOc1ccc(-n2c(-c3cc(OC)c(OC)c(OC)c3)nnc2-c2ccc(OC)cc2N)cc1
6. CCCCN(CCCC)c1ccc(C(=N)c2ccc(N(C)C)cc2)cc1

Response given:
34.3
105
101
7.24
77.1
-47.4
